Study target: Glycogen phosphorylase, liver form (Rattus norvegicus, UniProt P09811)
Sequence (P09811 whole entry): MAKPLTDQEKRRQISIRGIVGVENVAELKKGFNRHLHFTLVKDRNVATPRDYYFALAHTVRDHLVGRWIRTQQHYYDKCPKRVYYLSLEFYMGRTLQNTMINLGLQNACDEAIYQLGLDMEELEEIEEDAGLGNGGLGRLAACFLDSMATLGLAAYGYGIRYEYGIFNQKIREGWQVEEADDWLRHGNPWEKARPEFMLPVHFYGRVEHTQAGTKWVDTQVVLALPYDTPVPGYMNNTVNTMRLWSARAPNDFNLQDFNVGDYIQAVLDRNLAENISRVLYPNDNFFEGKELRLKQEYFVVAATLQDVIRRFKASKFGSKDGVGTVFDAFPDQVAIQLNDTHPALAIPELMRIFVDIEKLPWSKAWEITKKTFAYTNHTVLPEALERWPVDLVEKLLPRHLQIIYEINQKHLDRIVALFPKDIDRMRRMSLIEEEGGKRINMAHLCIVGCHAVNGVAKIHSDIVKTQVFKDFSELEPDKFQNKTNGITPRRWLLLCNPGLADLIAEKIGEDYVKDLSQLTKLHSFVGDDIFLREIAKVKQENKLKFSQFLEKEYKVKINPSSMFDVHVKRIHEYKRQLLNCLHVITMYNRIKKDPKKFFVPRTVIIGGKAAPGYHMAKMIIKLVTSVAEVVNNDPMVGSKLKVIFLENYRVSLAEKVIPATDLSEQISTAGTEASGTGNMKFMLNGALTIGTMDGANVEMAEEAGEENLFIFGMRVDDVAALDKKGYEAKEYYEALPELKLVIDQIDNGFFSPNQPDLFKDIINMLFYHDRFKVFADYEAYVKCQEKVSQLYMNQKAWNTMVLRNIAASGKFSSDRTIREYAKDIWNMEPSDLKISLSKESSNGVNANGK
Measured quantity: pIC50
// pIC50 here means minus log10 of the molar concentration (mol/L)

Request: Consider the compound C[C@H]1[C@H](C)CC[C@]2(C(=O)O)CC[C@]3(C)C(=CC[C@@H]4[C@@]5(C)C[C@@H](O)[C@H](O)C(C)(C)[C@@H]5CC[C@]43C)[C@H]12 and give its measured pIC50.
Response: 4.00
